Target: T1, recombinant cynomolgus monkey CD38 extracellular domain protein (ACROBiosystems) (cynomolgus monkey, UniProt Q5VAN0 44-301)
T1 construct: Bought extracellular domain protein; also called cyno CD38; recombinant cyno CD38
Test: ELISA screen of hybridoma supernatants on recombinant CD38
measured-attribute: binding result

{"binder": "Clone G (antibody, V domains shown, Murine hybridoma antibody tested as supernatant; also called anti-CD38 murine hybridoma clone G) VH: QVQLQQPGPELVKPVASVKISCKTSDYAFSSSWMNWVKQRPGKGLEWIGWIYPGDGDTNYNGKFKGKATLTADKSSSTAYMQLSSLTSEDSAVYFCARGRWGMDNWGQGTSVTVSS VL: DIVMTQSHKFMSTSVGDRVSITCKASQNVVTAVAWYQQKPGQSPKLLIYWASSRHTGVPDRFTGSGSGTDFTLTISNVQSEDLADYFCQQYSNYPFTFGSGTKLEIK", "obs-value": "binds"}
{"binder": "Clone A (antibody, V domains shown, Murine hybridoma antibody tested as supernatant; also called anti-CD38 murine hybridoma clone A) VH: QVQLQQSGAELVKPGASVKISCKASGYTFSNYWIEWVKQRPGLGLEWIGDILPGSGTTNYNEKFKGKATFTADTSSNTAYMQLSSLTSEDSAVYYCAGYGNYLWFTYWGQGTLVTVSA VL: DIQMNQSPSSLSASLGDTITITCHASQNINVWLSWYQQKPGNIPKLLIYKASNLHTGVPSRFSGSGSGTGFTLTISSLQPEDIATYYCQQGQSYPYTFGGGTKLEIK", "obs-value": "binds"}
{"binder": "Clone F (antibody, V domains shown, Murine hybridoma antibody tested as supernatant; also called anti-CD38 murine hybridoma clone F) VH: EVQLQQSGAEFVRPGASVKLSCTASGFNIKDSLMHWVKQRPEQGLEWIGWIDPEDDKTKYAPKFQDEATLTADTSSNTAYLHLSSLTSEDTAIYYCARRFLRGFAYWGQGTLVTVSA VL: DIVMTQSPSSLSVSAGEKVTMSCKSSQSLLNSGNQKNYLAWYQQKPGQPPKLLIYGASTRESGVPDRFTGSGSGTDFTLTISSVQAEDLAVYYCQNDHSYPYTFGGGTKLEIK", "obs-value": "binds"}
